Tested on: PC-3 prostate
Experiment: NCI-60 one-dose screen, 48 h (100 = growth as untreated, 0 = no growth, -100 = all killed)
Conditions: 10 µM unless noted
About 83,000 compounds went through this panel and 20% of them were active in at least one assay; those are over-represented in the sample as a whole.
quantity: growth (%)
Kindly answer with a numeric value in %, unit omitted.

Example compounds with recorded growth:
1. COc1cc(/C=C/C(=O)c2ccc(Cl)cc2)ccc1Oc1nc(NCCO)nc(N2CCOCC2)n1 : 95.3
2. N=C1CC(=O)NN1C(=O)CSc1nc2sc3c(c2c(=O)n1-c1ccc(Cl)cc1)CCCC3 : 95.6
3. N#Cc1c(-c2ccc(Cl)cc2)nc(SCc2ccc(F)cc2)nc1N1CCNCC1 : 53.8

Provide only the value of recorded growth for "Fc1ccc(-c2nc(C(Cl)Cl)nc3cc(-c4ccccc4)nn23)cc1"
31

Could you please provide reported growth for "Cc1nc(-c2cc3ccccc3oc2=O)ccc1C(=O)/C=C/c1ccc(N2CCOCC2)cc1" ? Thanks!
86.6
